Target: E-selectin (Homo sapiens)
Sequence (P16581 whole entry): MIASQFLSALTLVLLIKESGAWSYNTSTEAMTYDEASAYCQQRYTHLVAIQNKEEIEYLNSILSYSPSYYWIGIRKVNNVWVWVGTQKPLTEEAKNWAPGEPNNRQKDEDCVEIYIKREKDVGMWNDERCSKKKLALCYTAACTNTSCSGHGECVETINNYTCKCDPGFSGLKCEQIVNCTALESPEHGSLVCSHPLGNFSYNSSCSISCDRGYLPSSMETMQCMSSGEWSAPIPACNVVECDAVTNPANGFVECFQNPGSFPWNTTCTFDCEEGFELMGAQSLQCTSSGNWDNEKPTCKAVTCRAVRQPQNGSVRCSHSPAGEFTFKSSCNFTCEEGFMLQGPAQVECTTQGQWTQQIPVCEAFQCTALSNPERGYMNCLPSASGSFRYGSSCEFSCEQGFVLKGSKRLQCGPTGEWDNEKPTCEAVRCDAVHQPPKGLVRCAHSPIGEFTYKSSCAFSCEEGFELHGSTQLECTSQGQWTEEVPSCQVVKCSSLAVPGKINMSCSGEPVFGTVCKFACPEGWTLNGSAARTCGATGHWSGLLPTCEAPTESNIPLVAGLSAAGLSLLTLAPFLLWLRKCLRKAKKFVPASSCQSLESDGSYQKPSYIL
Parameter IC50: see the listing below.
observed-property: IC50

>>> df
                              line_notation              tested_target  observed_property  experimental_value
0  O=C(O)Cc1ccc(-c2ccccc2NC(=O)Cc2ccc(O)c(O)c2O)s1  E-selectin (Homo sapiens)               IC50            > 500 µM
1  Cc1ccc(C(=O)O)cc1NC(=O)Cc1cc(O)c(O)c(O)c1  E-selectin (Homo sapiens)               IC50            > 500 µM
2  O=C(O)Cc1ccc(-c2ccccc2NC(=O)c2cccc(-c3cc(O)c(O)c(O)c3)c2)s1  E-selectin (Homo sapiens)               IC50            > 500 µM

These data points were gathered from ChEMBL document CHEMBL1142933.
